# Tested on: SN12C renal
# protocol_notes: NCI-60 one-dose screen, 48 h
# applied_conditions: 10 µM
# Method: Growth inhibition of the SN12C human tumor cell line is measured as a screen for anti-cancer activity. Cells are grown in 96 well plates and exposed to the test compound for 48 hours. Compounds are tested at a single concentration, which is 10^-5 M for most compounds. The reported endpoint is percent growth (GI% or GIPRCNT), where numbers from 0 - 100% represent growth inhibition, and numbers from -100% - 0 represent cell death. For example, a value of 40 represents 60% growth inhibition. […]
This is part of a sample that, as a whole, favours compounds with a hit. Of some 83,000 tested, about 20% had one in any assay. The source made the active and inactive calls. The calls were made as follows: active = growth percent below 10; inactive = the rest.
Tick one outcome: YES (active), NO (inactive)

Use the examples below as a reference point.
{"compound": "CCOc1ccc(Nc2nc3ccccc3nc2Nc2ccc(OCC)cc2)cc1", "qualitative_label": "NO"}
{"compound": "C=C(C)[C@@H]1CC[C@]2(COP(=O)(OCC)OCC)CC[C@]3(C)[C@H](CC[C@@H]4[C@@](C)(CCCN)[C@H](C(=C)C)CC[C@]43C)[C@@H]12", "qualitative_label": "NO"}
{"compound": "CCCSc1nc(NC2CC2)c(C#N)c(-c2ccc(OC)cc2)n1", "qualitative_label": "NO"}
{"compound": "CCCn1c(=O)c2[nH]c(-c3ccc(OCc4nc5ccc(C)cc5[nH]4)cc3)nc2n(CCC)c1=O", "qualitative_label": "YES"}
{"compound": "O=C(Nc1ccc(Cl)c(C(F)(F)F)c1)c1cncc(C#Cc2cnc3ccc(N4CCOCC4)nn23)c1", "qualitative_label": "YES"}

Incoming: I would be grateful if you could indicate the recorded call for CCCn1c(=O)c2[nH]c(-c3ccc(OCc4nc5ccc(C(F)(F)F)cc5[nH]4)cc3)nc2n(CCC)c1=O .
Outgoing: NO

Incoming: Let us now turn to CN1CCO/C1=C(/NC(=O)c1ccc(Cl)cc1)[P+](c1ccccc1)(c1ccccc1)c1ccccc1
Outgoing: NO

Incoming: Let us now turn to O=C(CSc1nnc(-c2ccc3nc(-c4ccccc4)[nH]c3c2)o1)Nc1ccc(Cl)cc1
Outgoing: NO

Incoming: Let us now turn to CN1CCCN(Cc2ccc(C(=O)Nc3cccc(Nc4ccc5c(O)cccc5n4)c3)cc2C(F)(F)F)CC1
Outgoing: YES

Incoming: Let us now turn to O=C(Nc1ccc(Cl)c([N+](=O)[O-])c1)Nc1ccc(Cl)c([N+](=O)[O-])c1
Outgoing: YES

Incoming: Let us now turn to Cc1nn(-c2ccccc2)c2ncn(CC(=O)N/N=C/c3c[nH]c4ccccc34)c(=O)c12
Outgoing: NO

Incoming: Let us now turn to CN1CCN(c2ccc(C(=O)/C=C/c3ccc(OC(F)F)cc3)cc2)CC1
Outgoing: NO

Incoming: Let us now turn to O=C1Nc2cc(-c3ccc(NC(=O)c4cccc([N+](=O)[O-])c4)cc3)ccc2/C1=C/c1ccc[nH]1
Outgoing: NO

Incoming: Let us now turn to O=C(CNc1nc(-c2ccccc2)cs1)Nc1ccc(Br)cc1
Outgoing: YES

Incoming: Let us now turn to O=C(N/N=C/c1ccc(-c2cccc([N+](=O)[O-])c2)o1)c1[nH]c2ccc(Br)cc2c1-c1ccccc1
Outgoing: YES

Incoming: Let us now turn to Cc1ccc(/C=C/C(=O)c2ccc(S(=O)(=O)NCCNc3nc(Nc4ccc(F)cc4)nc(N(C)C)n3)cc2)cc1
Outgoing: YES

Incoming: Let us now turn to C=C1CCC2C3(C)COC(c4cccc(F)c4)OC3CCC2(C)C1CC(O)C1=CCOC1=O (stereo unspecified)
Outgoing: NO

Incoming: Let us now turn to O=C(CSc1nnc(-c2c[nH]c3ccccc23)n1-c1ccccc1)Nc1ccc(C(=O)/C=C/c2ccccc2Cl)cc1
Outgoing: NO

Incoming: Let us now turn to COc1ccc(-c2ccc(/C=N/NC(=O)c3[nH]c4ccc(Br)cc4c3-c3ccccc3)s2)cc1
Outgoing: NO
